Recorded measurements of IC50, one per entry
molecular target: human PDHK2 (hPDHK2) (Homo sapiens (Human), UniProt Q15119); assay: Inhibitory action of PDHK activity in vitro (kinase reaction, residual PDH activity measured); type: biochemical; settings: PDHK inhibitory activity, class symbol of IC50

Guide cases for IC50, answers given:
COC(=O)COc1cc(Br)c2c(c1)C(O)(C(F)(F)F)c1ccccc1-2 (single isomer, unassigned) [compound 452]    > 1000 nM
NC(=O)CCCCOc1ccc2c(c1)C(O)(C(F)(F)F)c1ccccc1-2 (stereo not shown)    100 to 1000 nM
CC(C)(C)OC(=O)NCCOc1ccc2c(c1)C(O)(C(F)(F)F)c1ccccc1-2 (stereo not shown)    100 to 1000 nM
COc1cc(-c2cnn(CCC(=O)O)c2)c2c(c1)C(O)(C(F)(F)F)c1ccccc1-2 (single isomer, unassigned)    < 100 nM
CCOC1CN(C(=O)c2ccc3c(c2)C(O)(C(F)(F)F)c2ccccc2-3)C1 (stereo not shown)    100 to 1000 nM
OC1(C(F)(F)F)c2ccccc2-c2c(Cl)cc(F)cc21 (stereo not shown)    100 to 1000 nM

Suppose we examine the compound O=C1CCC(CO)N1CCOc1ccc2c(c1)C(O)(C(F)(F)F)c1ccccc1-2 (stereo not shown) ; what IC50 value has been reported?
100 to 1000 nM

Please do the same for O=C(O)CCn1cc(-c2cccc3c2-c2ccccc2C3(O)C(F)(F)F)cn1 (stereo not shown) as well.
100 to 1000 nM

Please do the same for CCCCCOc1ccc2c(c1)C(O)(C(F)(F)F)c1ccccc1-2 (stereo not shown) as well.
100 to 1000 nM

Please do the same for O=C(COc1ccc2c(c1)C(O)(C(F)(F)F)c1ccccc1-2)N1CCC1 (stereo not shown) as well.
100 to 1000 nM

Please do the same for OC1(C(F)(F)F)c2ccccc2-c2cccc(F)c21 (stereo not shown) as well.
> 1000 nM

Please do the same for Cn1cc(-c2cc(OCCC(=O)O)cc3c2-c2ccccc2C3(O)C(F)(F)F)cn1 (stereo not shown) as well.
< 100 nM

Please do the same for CNC(=O)c1ccccc1-c1ccc2c(c1)C(O)(C(F)(F)F)c1ccccc1-2 (stereo not shown) as well.
> 1000 nM

Please do the same for OCCCCOc1ccc2c(c1)C(O)(C(F)(F)F)c1ccccc1-2 (stereo not shown) as well.
100 to 1000 nM

Please do the same for O=C(c1ccc2c(c1)C(O)(C(F)(F)F)c1ccccc1-2)N1CCOCC1 (stereo not shown) as well.
> 1000 nM

Please do the same for COC(=O)Cc1ccc2c(c1)C(O)(C(F)(F)F)c1ccccc1-2 (stereo not shown) as well.
> 1000 nM

###

Recorded measurements of pIC50, one per entry
biological target: human PDHK2 (hPDHK2) (Homo sapiens (Human)); assay: Inhibitory action of PDHK activity in vitro (kinase reaction, residual PDH activity measured); type: biochemical; details: PDHK inhibitory activity, class symbol of IC50
pIC50: −log10 of the molar value.

Guide cases for pIC50, answers given:
CN(CCOc1cnc2c(c1)C(O)(C(F)(F)F)c1ccccc1-2)C(=O)CO (centres unmarked)    6.00 to 7.00
OC1(Cn2cc(-c3cc(F)cc4c3-c3ccccc3[C@]4(O)C(F)(F)F)cn2)CCCCC1 (stereo in doubt)    > 7.00
CN(CCOc1ccc2c(c1)C(O)(C(F)(F)F)c1ccccc1-2)C(=O)OC(C)(C)C (centres unmarked)    6.00 to 7.00
O=C(O)c1ccc2c(c1)-c1ccccc1C2(O)C(F)(F)F (centres unmarked)    < 6.00

Suppose we examine the compound Cc1cc(-c2cnn(C(C)(C)C(=O)O)c2)c2c(c1)C(O)(C(F)(F)F)c1ccccc1-2 (single isomer, unassigned) ; what pIC50 value has been reported?
> 7.00

Please do the same for CC(C)n1cc(-c2cc(C(N)=O)c3c(c2)C(O)(C(F)(F)F)c2ccccc2-3)cn1 (centres unmarked) as well.
> 7.00

Please do the same for CCc1ccc2c(c1)C(O)(C(F)(F)F)c1ccccc1-2 (centres unmarked) as well.
< 6.00

Please do the same for O=C(O)COc1ccc2c(c1)C(O)(C(F)(F)F)c1ccccc1-2 (centres unmarked) as well.
< 6.00
